# test_description: Pharmacokinetics assay in rats
# Format: in vivo
# cond: both sexes, Sprague-Dawley, rat, plasma, po; SD rats, intragastric, 5 mg/kg; read-out: Half-Life T½ (converted)
# Experimental: Rats were used as test animals. The drug concentration in plasma at different time points was determined by LC/MS/MS after administration of the compounds of Example 8, Example 11, Example 14, Example 17, Example 20, Example 27, Example 33, Example 35, Example 36, Example 37 and Example 48 to rats. The pharmacokinetic behavior of the present compounds was studied and evaluated in rats. […] Plasma samples were analyzed after pretreatment by protein precipitation.
half-life values for the compounds below.
All answers are understood in min, so give the number only.

Input line: Any idea what half-life was measured for CCn1c(-c2cccc(Cl)c2)cc2nc(NC(=O)c3cc(CNC(=O)C(C)(C)F)cnc3C(F)F)ccc21 ?
Output line: 269

Input line: Dear colleague, I am looking for the recorded half-life of the following compound: CCn1c(-c2ccc(F)cc2)cc2cc(NC(=O)c3cc(CNC(=O)C(C)(C)C)ccc3Cl)ccc21
Output line: 281

Input line: Field request: half-life | item: Cn1c(-c2ccc(F)cc2)cc2cc(NC(=O)c3cc(CNC(=O)C(C)(C)C)ccc3Cl)ccc21
Output line: 316

Input line: Endpoint output: half-life of Cn1c(-c2cccc(Cl)c2)cc2cc(NC(=O)c3cc(CNC(=O)C(C)(C)F)cnc3C(F)F)ncc21 . Value?
Output line: 221

====

// reported AUC per item
# test_description: Pharmacokinetics assay in rats
# Format: in vivo
# cond: both sexes, Sprague-Dawley, rat, plasma, po; SD rats, intragastric, 5 mg/kg; read-out: Area Under Curve AUC
Write the number in ng·h/mL without appending the unit.

smiles_text: Cn1c(-c2cccc(Cl)c2)cc2cc(NC(=O)c3cc(CNC(=O)C(C)(C)F)cnc3C(F)F)ncc21
AUC / ng·h/mL: 3540

smiles_text: CCn1c(-c2ccc(F)cc2)cc2cc(NC(=O)c3cc(CNC(=O)C(C)(C)C)ccc3Cl)ccc21
AUC / ng·h/mL: 2900

smiles_text: CCn1c(-c2cccc(Cl)c2)cc2nc(NC(=O)c3cc(CNC(=O)C(C)(C)F)cnc3C(F)F)ccc21
AUC / ng·h/mL: 23200

Okay, now this compound:
Input line: I'd like to know its AUC. The compound in question is Cn1c(-c2ccc(Cl)cc2)cc2cc(NC(=O)c3cc(CNC(=O)C(C)(C)F)cnc3C(F)F)ccc21
Output line: 1790

====

Assay system human mPGES1 (Homo sapiens (Human)); read-out recorded as IC50.
Unit nM implied. Number only.

smiles_text: CC(C)(F)C(=O)NCc1cnc(C(F)F)c(C(=O)Nc2ccc3c(c2)CN(c2cccc(C(F)(F)F)c2)C3)c1
IC50 / nM: 8.29
//
smiles_text: CC(C)C(=O)NCc1cnc(C(F)F)c(C(=O)Nc2ccc3c(c2)cc(-c2ccc(C(F)(F)F)cc2)n3C)c1
IC50 / nM: 15.6

Input line: Could you share what IC50 was measured for CCn1c(-c2ccc(F)cc2)cc2cc(NC(=O)c3cc(CNC(=O)C(C)C)cnc3C(F)F)ccc21 , tested on human mPGES1 (Homo sapiens (Human))?
Output line: 22

====

Listed here are molecules together with their documented Vd/F.
# test_description: Pharmacokinetics assay in rats
# Assay type: in vivo
# cond: both sexes, Sprague-Dawley, rat, plasma, po; SD rats, intragastric, 5 mg/kg; read-out: Apparent Distribution Volume Vz/F
Write the number in L/kg without appending the unit.

Before answering, review these 6 worked examples.
smiles_text: Cn1c(-c2cccc(Cl)c2)cc2nc(NC(=O)c3cc(CNC(=O)C(C)(C)F)cnc3C(F)F)ccc21
measurement_units: L/kg
number: 1.85
--
smiles_text: Cn1c(-c2ccc(F)cc2)cc2cc(NC(=O)c3cc(CNC(=O)C(C)(C)C)ccc3Cl)ccc21
measurement_units: L/kg
number: 5.83
--
smiles_text: Cn1c(-c2cccc(Cl)c2)cc2cc(NC(=O)c3cc(CNC(=O)C(C)(C)F)cnc3C(F)F)ccc21
measurement_units: L/kg
number: 4.82
--
smiles_text: CCn1c(-c2cccc(Cl)c2)cc2cc(NC(=O)c3cc(CNC(=O)C(C)(C)F)cnc3C(F)F)ccc21
measurement_units: L/kg
number: 5.41
--
smiles_text: COCCn1c(-c2ccc(C(F)(F)F)cc2)cc2cc(NC(=O)c3cc(CNC(=O)C(C)(C)F)cnc3C(F)F)ccc21
measurement_units: L/kg
number: 15.1
--
smiles_text: CC(C)(F)C(=O)NCc1cnc(C(F)F)c(C(=O)Nc2ccc3oc(-c4cccc(C(F)(F)F)c4)cc3c2)c1
measurement_units: L/kg
number: 7.53

Input line: Which measured Vd/F value corresponds to Cn1c(-c2cccc(Cl)c2)cc2cc(NC(=O)c3cc(CNC(=O)C(C)(C)F)cnc3C(F)F)ncc21 ?
Output line: 7.22
